assay: physchem; details: phosphate buffered saline, pH 7.4
REPORTED_METRIC: log10(solubility kinetic) (log10 of the value in µM)
// do not treat as linear: log10 of solubility kinetic, unit µM

Record excerpt, results attached:
Cc1ccc2nc(C)c(C(=O)NCC(C)C)n2c1: 2.46
O=C(NC1=NCCS1)c1sc2cc(F)ccc2c1Cl: 0.00
COc1ccc(CC(=O)Nc2c(-c3cccs3)nc3cc(C)ccn23)cc1: 1.94
O=C(C=Cc1cccs1)N1CCN(Cc2ccc(Br)s2)CC1: 2.18
COc1ccc2nc(C)cc(OCC(=O)NCc3ccccc3)c2c1: 1.98
CC(C)n1ncc2c(C(=O)NCC(c3cccs3)N3CCOCC3)cc(-c3ccccc3)nc21 (stereo unspecified): 0.00
CCN(Cc1ccc2c(c1)OCO2)C(=O)CSc1nc(NC)c2ccccc2n1: 1.87
O=C(NNC(=O)c1ccc([N+](=O)[O-])o1)c1ccc2ccccc2c1: 0.00

Below are some compounds; for each one, tell me its log10(solubility kinetic).
1. Nc1cccnc1Nc1ccc(C(F)(F)F)cc1
2. Br.CC1(C)NC(N)=NC(=N)N1OCCCOc1ccc(Cl)cc1Cl

1: 2.52; 2: 2.53

Which log10(solubility kinetic) value is on record for O=C(NCc1ccccc1F)N1CCN(Cc2ccc(Br)s2)CC1 ? 1.78

====

test: physchem; settings: phosphate buffered saline, pH 7.4
Provide the recorded solubility kinetic for the entries that follow.
One number for each entry, in µM.

Record excerpt, results attached:
COc1ccc(-c2ccc(Nc3cccc(S(=O)(=O)CCNCCc4cccs4)c3)nc2)cn1: 1
c1csc(-c2nnc(Sc3ccnc(N4CCN(c5ccncc5)CC4)n3)n2CCCN2CCOCC2)c1: 185
Cc1ccc2nc(C)c(C(=O)NCc3ccco3)n2c1: 277

// moving on: another record for solubility kinetic
Which solubility kinetic value is on record for N#Cc1nc(-c2ccccc2)oc1S(=O)(=O)c1ccc(Cl)cc1 ? 1

====

experiment: physchem; conditions: octanol/water
Description: GSK_TB: GSK in-house hydrophobicity assay (logP)
Lab note: compare logP against 5. Equal or greater, write Fulfilled. Smaller, write Not fulfilled.

Consider the following illustrative entries.
O=C(Nc1ccccc1-c1nc(C2CCC2)cs1)OCC1CCNCC1.O=C(O)C(F)(F)F: Fulfilled
Cc1nc2ccccn2c1C(=O)NCc1ccc(Cl)cc1: Not fulfilled
CSc1cccc(C(=O)Nc2nc(-c3ccccn3)cs2)c1: Fulfilled
CCOc1ccc(-c2nc(CNCCc3ccc(F)cc3)cs2)cc1.O=C(O)C(=O)O: Fulfilled
Br.CCCc1cc(C(C)=O)ccc1OCCCON1C(=N)N=C(N)NC1(C)C: Not fulfilled

We next turn to a different compound, shown below.
Threshold query (logP >= 5) on N#Cc1nc(-c2ccccc2)oc1S(=O)(=O)c1ccc(Cl)cc1 Fulfilled

====

Provide the recorded solubility kinetic for the entries that follow.
test: physchem; settings: phosphate buffered saline, pH 7.4
Give bare numbers, in µM.

Record excerpt, results attached:
N=C(N)c1ccc(CCN2CCC(c3nc(COCC(F)(F)F)c(-c4ccc(F)cc4)o3)CC2)cc1.O=C(O)C(F)(F)F.O=C(O)C(F)(F)F: 255
CCOC(=O)CC[C@H](NC(=O)c1ccc(S(=O)(=O)Nc2ccc3nc(N)[nH]c(=O)c3c2)cc1)C(=O)OCC: 300
Nc1cc(OCc2ccccc2)ccc1Nc1ccccc1: 1
Br.Cc1cc(C)cc(OCCCON2C(=N)N=C(N)NC2(C)C)c1: 358
O=C(COc1ccccc1)N1CCN(c2cnc3ccccc3n2)CC1: 173
CNc1nc(SC)nc2ccsc12: 439

Below are some compounds; for each one, tell me its solubility kinetic.
1. COc1cccc(-c2nc3c(N4CCCC4)cccc3n2CC2CCCN2)n1.O=C(O)C(F)(F)F (stereo not given)
2. O=C(C=Cc1cccs1)N1CCN(Cc2ccc3c(c2)OCO3)CC1
3. COc1ccc(-c2nsc(SCC(=O)N3CCCC3)n2)cc1
4. O=C(C=Cc1ccco1)N1CCN(Cc2ccc3c(c2)OCO3)CC1

1: 78; 2: 314; 3: 10; 4: 186
